Experiment: Study .4: 4-week treatment of diabetic patients, once daily, pharmacokinetic parameters
Type: in vivo, human
Details: human, plasma, oral, 10 mg, 10 mg once daily, steady state, Study .4, fasted; read-out: Cmax,ss Mean

{"columns": ["lineNotation", "Cmax"],
 "data": [
  ["OC[C@H]1O[C@@H](c2ccc(Cl)c(Cc3ccc(O[C@H]4CCOC4)cc3)c2)[C@H](O)[C@@H](O)[C@@H]1O", "259 nM"]
]}

====

Assay: Pharmacokinetic profile in fasting humans, ranges over Studies .1 to .5
Type: in vivo
Conditions: human, plasma, oral, 10 mg, single dose of 10.0 mg, read-out: Cmax

{"columns": ["compound", "Cmax"],
 "data": [
  ["OC[C@H]1O[C@@H](c2ccc(Cl)c(Cc3ccc(O[C@H]4CCOC4)cc3)c2)[C@H](O)[C@@H](O)[C@@H]1O [Compound (I.9)]", "143 to 796 nM"]
]}

====

Test: Pharmacokinetic profile in fasting humans, ranges over Studies .1 to .5
Assay type: in vivo
Details: human, plasma, oral, 10 mg, single dose of 10.0 mg, read-out: geometric mean Cmax
parameter: Cmax

{"columns": ["lineNotation", "parameter", "measurement"],
 "data": [
  ["OC[C@H]1O[C@@H](c2ccc(Cl)c(Cc3ccc(O[C@H]4CCOC4)cc3)c2)[C@H](O)[C@@H](O)[C@@H]1O", "Cmax", "221 to 372 nM"]
]}

====

Assay: Study .2: multiple rising dose trial in diabetic patients, once daily for 8 days, pharmacokinetic parameters
Assay type: in vivo, human
Details: human, plasma, oral, 10 mg, 10 mg single dose, Study .2, fasted; read-out: AUC0-inf gMean

{"columns": ["lineNotation", "AUC(0-inf) [µM·h]"],
 "data": [
  ["OC[C@H]1O[C@@H](c2ccc(Cl)c(Cc3ccc(O[C@H]4CCOC4)cc3)c2)[C@H](O)[C@@H](O)[C@@H]1O", 1.89]
]}

====

Assay: Study .5: single dose study in healthy Japanese volunteers, pharmacokinetic parameters
Assay type: in vivo, human
Conditions: human, plasma, oral, 5 mg, 5 mg single dose, Study .5, fasted; read-out: tmax gMean

{"columns": ["compound", "Tmax / h"],
 "data": [
  ["OC[C@H]1O[C@@H](c2ccc(Cl)c(Cc3ccc(O[C@H]4CCOC4)cc3)c2)[C@H](O)[C@@H](O)[C@@H]1O [Compound (I.9)]", 1.51]
]}

====

Assay: Study .5: single dose study in healthy Japanese volunteers, pharmacokinetic parameters
Type: in vivo, human
Details: human, plasma, oral, 25 mg, 25 mg single dose, Study .5, fasted; read-out: AUC0-inf Median
parameter: AUC(0-inf) (µM·h)

{"columns": ["lineNotation", "unitAbbrev", "measurement"],
 "data": [
  ["OC[C@H]1O[C@@H](c2ccc(Cl)c(Cc3ccc(O[C@H]4CCOC4)cc3)c2)[C@H](O)[C@@H](O)[C@@H]1O", "µM·h", 6.34]
]}

====

Assay: Study .1: single dose study in healthy volunteers, pharmacokinetic parameters
Format: in vivo, human
Conditions: human, plasma, oral, 2.5 mg, 2.5 mg single dose, Study .1, fasted; read-out: AUC0-inf Mean

{"columns": ["lineNotation", "unitAbbrev", "AUC(0-inf)"],
 "data": [
  ["OC[C@H]1O[C@@H](c2ccc(Cl)c(Cc3ccc(O[C@H]4CCOC4)cc3)c2)[C@H](O)[C@@H](O)[C@@H]1O", "nM·h", 396]
]}

====

Test: Study .4: 4-week treatment of diabetic patients, once daily, pharmacokinetic parameters
Type: in vivo, human
Conditions: human, plasma, oral, 10 mg, 10 mg once daily, steady state, Study .4, fasted; read-out: Cmax,ss Median

{"columns": ["lineNotation", "Cmax / µM"],
 "data": [
  ["OC[C@H]1O[C@@H](c2ccc(Cl)c(Cc3ccc(O[C@H]4CCOC4)cc3)c2)[C@H](O)[C@@H](O)[C@@H]1O", 0.251]
]}

====

Experiment: Pharmacokinetic profile in fasting humans, ranges over Studies .1 to .5
Format: in vivo
Settings: human, plasma, oral, 10 mg, dose of 10.0 mg, read-out: AUC

{"columns": ["lineNotation", "AUC"],
 "data": [
  ["OC[C@H]1O[C@@H](c2ccc(Cl)c(Cc3ccc(O[C@H]4CCOC4)cc3)c2)[C@H](O)[C@@H](O)[C@@H]1O", "1.17 to 3.19 µM·h"]
]}

====

Assay: Study .1: single dose study in healthy volunteers, pharmacokinetic parameters
Format: in vivo, human
Settings: human, plasma, oral, 50 mg, 50 mg single dose, Study .1, fasted; read-out: tmax gMean

{"columns": ["lineNotation", "unitAbbrev", "Tmax"],
 "data": [
  ["OC[C@H]1O[C@@H](c2ccc(Cl)c(Cc3ccc(O[C@H]4CCOC4)cc3)c2)[C@H](O)[C@@H](O)[C@@H]1O", "h", 1.59]
]}

====

Assay: Pharmacokinetic profile in fasting humans, ranges over Studies .1 to .5
Type: in vivo
Settings: human, plasma, oral, 10 mg, multiple doses of 10.0 mg, read-out: geometric mean AUCτ,ss
parameter: AUC

{"columns": ["lineNotation", "parameter", "measurement"],
 "data": [
  ["OC[C@H]1O[C@@H](c2ccc(Cl)c(Cc3ccc(O[C@H]4CCOC4)cc3)c2)[C@H](O)[C@@H](O)[C@@H]1O", "AUC", "1.85 to 2 µM·h"]
]}

====

Assay: Study .1: single dose study in healthy volunteers, pharmacokinetic parameters
Type: in vivo, human
Details: human, plasma, oral, 2.5 mg, 2.5 mg single dose, Study .1, fasted; read-out: tmax gMean
parameter: Tmax (h)

{"columns": ["lineNotation", "measurement"],
 "data": [
  ["OC[C@H]1O[C@@H](c2ccc(Cl)c(Cc3ccc(O[C@H]4CCOC4)cc3)c2)[C@H](O)[C@@H](O)[C@@H]1O", 1.72]
]}

====

Assay: Study .2: multiple rising dose trial in diabetic patients, once daily for 8 days, pharmacokinetic parameters
Assay type: in vivo, human
Conditions: human, plasma, oral, 2.5 mg, 2.5 mg single dose, Study .2, fasted; read-out: tmax Mean

{"columns": ["compound", "Tmax"],
 "data": [
  ["OC[C@H]1O[C@@H](c2ccc(Cl)c(Cc3ccc(O[C@H]4CCOC4)cc3)c2)[C@H](O)[C@@H](O)[C@@H]1O [Compound (I.9)]", "1.41 h"]
]}

====

Test: Study .5: single dose study in healthy Japanese volunteers, pharmacokinetic parameters
Type: in vivo, human
Details: human, plasma, oral, 10 mg, 10 mg single dose, Study .5, fasted; read-out: AUC0-inf gMean

{"columns": ["compound", "AUC(0-inf) / µM·h"],
 "data": [
  ["OC[C@H]1O[C@@H](c2ccc(Cl)c(Cc3ccc(O[C@H]4CCOC4)cc3)c2)[C@H](O)[C@@H](O)[C@@H]1O [Compound (I.9)]", 2.66]
]}

====

Assay: Study .2: multiple rising dose trial in diabetic patients, once daily for 8 days, pharmacokinetic parameters
Assay type: in vivo, human
Conditions: 2.5 mg once daily, steady state, Study .2, fasted; read-out: Cmax,ss Min
parameter: Cmax (nM)

{"columns": ["lineNotation", "measurement"],
 "data": [
  ["OC[C@H]1O[C@@H](c2ccc(Cl)c(Cc3ccc(O[C@H]4CCOC4)cc3)c2)[C@H](O)[C@@H](O)[C@@H]1O", 40.3]
]}

====

Test: Study .5: single dose study in healthy Japanese volunteers, pharmacokinetic parameters
Format: in vivo, human
Details: human, plasma, oral, 5 mg, 5 mg single dose, Study .5, fasted; read-out: tmax Mean
parameter: Tmax

{"columns": ["lineNotation", "parameter", "measurement"],
 "data": [
  ["OC[C@H]1O[C@@H](c2ccc(Cl)c(Cc3ccc(O[C@H]4CCOC4)cc3)c2)[C@H](O)[C@@H](O)[C@@H]1O", "Tmax", "1.63 h"]
]}

====

Test: Study .2: multiple rising dose trial in diabetic patients, once daily for 8 days, pharmacokinetic parameters
Type: in vivo, human
Conditions: human, plasma, oral, 25 mg, 25 mg once daily, steady state, Study .2, fasted; read-out: Cmax,ss gMean

{"columns": ["compound", "Cmax / nM"],
 "data": [
  ["OC[C@H]1O[C@@H](c2ccc(Cl)c(Cc3ccc(O[C@H]4CCOC4)cc3)c2)[C@H](O)[C@@H](O)[C@@H]1O [Compound (I.9)]", 622]
]}

====

Assay: Study .5: single dose study in healthy Japanese volunteers, pharmacokinetic parameters
Type: in vivo, human
Settings: 25 mg single dose, Study .5, fasted; read-out: Cmax Max
parameter: Cmax (nM)

{"columns": ["lineNotation", "parameter", "measurement"],
 "data": [
  ["OC[C@H]1O[C@@H](c2ccc(Cl)c(Cc3ccc(O[C@H]4CCOC4)cc3)c2)[C@H](O)[C@@H](O)[C@@H]1O", "Cmax", 790]
]}

====

Assay: Study .5: single dose study in healthy Japanese volunteers, pharmacokinetic parameters
Format: in vivo, human
Conditions: human, plasma, oral, 25 mg, 25 mg single dose, Study .5, fasted; read-out: Cmax gMean
parameter: Cmax (nM)

{"columns": ["lineNotation", "measurement"],
 "data": [
  ["OC[C@H]1O[C@@H](c2ccc(Cl)c(Cc3ccc(O[C@H]4CCOC4)cc3)c2)[C@H](O)[C@@H](O)[C@@H]1O", 658]
]}
